# Tested on: Bacteroides fragilis ATCC 25285 L1011
# assayDetails: MIC by microbroth dilution
# Format: cell-based
# conditionParameters: 0,01% BSA, 10^5 CFU/ml, 48 h, anaerobic, Wilkins-Chalgren broth
# Procedure: The minimal inhibitory concentration (MIC) has been determined by microbroth dilution methodology, in the presence of 0,01% (w/v) of bovine serum albumin (BSA). […] Inocula were 10^4 CFU/ml, except for Propionibacterium acnes and Bacteroides fragilis (10^5 CFU/ml) MICs were read after 18-24 h, except for Haemophilus influenzae, P. acnes, B. fragilis (48 h). […]

molecule: CNC(=O)CC1NC(=O)c2csc(n2)-c2ccc(-c3nc(C4=NC(C(=O)N5CCN(C)CC5)CO4)cs3)nc2-c2csc(n2)-c2csc(n2)C(C(O)c2ccccc2)NC(=O)CNC(=O)c2nc(sc2COC)C(C(C)C)NC(=O)c2nc1sc2C (mixture of isomers) [Compound 6]
resultModifier: =
MIC of the compounds (µg/mL): 128

molecule: CNC(=O)CC1NC(=O)c2csc(n2)-c2ccc(-c3nc(C4=NC(C(=O)N(C)CCN5CCN(CCO)CC5)CO4)cs3)nc2-c2csc(n2)-c2csc(n2)C(C(O)c2ccccc2)NC(=O)CNC(=O)c2nc(sc2COC)C(C(C)C)NC(=O)c2nc1sc2C (mixture of isomers) [Compound 19]
resultModifier: =
MIC of the compounds (µg/mL): 4

molecule: CNC(=O)CC1NC(=O)c2csc(n2)-c2ccc(-c3nc(C4=NC(C(=O)N5CCC(N(C)C)CC5)CO4)cs3)nc2-c2csc(n2)-c2csc(n2)C(C(O)c2ccccc2)NC(=O)CNC(=O)c2nc(sc2COC)C(C(C)C)NC(=O)c2nc1sc2C (stereo not shown) [Compound 10s]
resultModifier: =
MIC of the compounds (µg/mL): 8

molecule: CNC(=O)CC1NC(=O)c2csc(n2)-c2ccc(-c3nc(C4=NC(C(=O)NC5CNC(C(N)=O)C5)CO4)cs3)nc2-c2csc(n2)-c2csc(n2)C(C(O)c2ccccc2)NC(=O)CNC(=O)c2nc(sc2COC)C(C(C)C)NC(=O)c2nc1sc2C.O=C(O)C(F)(F)F (mixture of isomers) [Compound 13]
resultModifier: >
MIC of the compounds (µg/mL): 128

====

# Test system: Streptococcus pyogenes L49
# assayDetails: MIC by microbroth dilution
# Format: cell-based
# conditionParameters: 0,01% BSA, 10^4 CFU/ml, 18-24 h, Todd Hewitt broth
# Protocol: The minimal inhibitory concentration (MIC) has been determined by microbroth dilution methodology, in the presence of 0,01% (w/v) of bovine serum albumin (BSA). […] Inocula were 10^4 CFU/ml, except for Propionibacterium acnes and Bacteroides fragilis (10^5 CFU/ml) MICs were read after 18-24 h, except for Haemophilus influenzae, P. acnes, B. fragilis (48 h). […]
Collected MIC of the compounds values appear next to each entry.

compound: CNC(=O)CC1NC(=O)c2csc(n2)-c2ccc(-c3nc(C4=NC(C(=O)N(C)CCN(C)C)CO4)cs3)nc2-c2csc(n2)-c2csc(n2)C(C(O)c2ccccc2)NC(=O)CNC(=O)c2nc(sc2COC)C(C(C)C)NC(=O)c2nc1sc2C (stereo not shown) [Compound 4s]
uom: µg/mL
MIC of the compounds: 1
--
compound: CNC(=O)CC1NC(=O)c2csc(n2)-c2ccc(-c3nc(C4=NC(C(=O)N5CCC(N(C)C)CC5)CO4)cs3)nc2-c2csc(n2)-c2csc(n2)C(C(O)c2ccccc2)NC(=O)CNC(=O)c2nc(sc2COC)C(C(C)C)NC(=O)c2nc1sc2C (stereo not shown) [Compound 10s]
uom: µg/mL
MIC of the compounds: 1
--
compound: CNC(=O)CC1NC(=O)c2csc(n2)-c2ccc(-c3nc(C4=NC(C(=O)N5CC(C)NC(C)C5)CO4)cs3)nc2-c2csc(n2)-c2csc(n2)C(C(O)c2ccccc2)NC(=O)CNC(=O)c2nc(sc2COC)C(C(C)C)NC(=O)c2nc1sc2C (mixture of isomers)
uom: µg/mL
MIC of the compounds: 2
--
compound: CNC(=O)CC1NC(=O)c2csc(n2)-c2ccc(-c3nc(C4=NC(C(=O)NC5CNC(C(N)=O)C5)CO4)cs3)nc2-c2csc(n2)-c2csc(n2)C(C(O)c2ccccc2)NC(=O)CNC(=O)c2nc(sc2COC)C(C(C)C)NC(=O)c2nc1sc2C.O=C(O)C(F)(F)F (mixture of isomers)
uom: µg/mL
MIC of the compounds: 4
--
compound: CNC(=O)CC1NC(=O)c2csc(n2)-c2ccc(-c3nc(C4=NC(C(=O)N5CCN(CCCN(C)C)CC5)CO4)cs3)nc2-c2csc(n2)-c2csc(n2)C(C(O)c2ccccc2)NC(=O)CNC(=O)c2nc(sc2COC)C(C(C)C)NC(=O)c2nc1sc2C (mixture of isomers)
uom: µg/mL
MIC of the compounds: 2
--
compound: CCN(CCN(C)C)C(=O)C1COC(c2csc(-c3ccc4c(n3)-c3csc(n3)-c3csc(n3)C(C(O)c3ccccc3)NC(=O)CNC(=O)c3nc(sc3COC)C(C(C)C)NC(=O)c3nc(sc3C)C(CC(=O)NC)NC(=O)c3csc-4n3)n2)=N1 (mixture of isomers)
uom: µg/mL
MIC of the compounds: 8
--
compound: CNC(=O)CC1NC(=O)c2csc(n2)-c2ccc(-c3nc(C4=NC(C(=O)NCCN5CCCC5)CO4)cs3)nc2-c2csc(n2)-c2csc(n2)C(C(O)c2ccccc2)NC(=O)CNC(=O)c2nc(sc2COC)C(C(C)C)NC(=O)c2nc1sc2C (mixture of isomers)
uom: µg/mL
MIC of the compounds: 1

====

# Tested on: Strept. agalactiae L310
# assayDetails: MIC by microbroth dilution
# Format: cell-based, Streptococcus agalactiae
# conditionParameters: 0,01% BSA, 10^4 CFU/ml, 18-24 h, Todd Hewitt broth

compound: CCN(CCN(C)C)C(=O)C1COC(c2csc(-c3ccc4c(n3)-c3csc(n3)-c3csc(n3)C(C(O)c3ccccc3)NC(=O)CNC(=O)c3nc(sc3COC)C(C(C)C)NC(=O)c3nc(sc3C)C(CC(=O)NC)NC(=O)c3csc-4n3)n2)=N1 (mixture of isomers) [Compound 8]
studyTarget: Strept. agalactiae L310
MIC of the compounds, µg/mL: 4
--
compound: CNC(=O)CC1NC(=O)c2csc(n2)-c2ccc(-c3nc(C4=NC(C(=O)NCCN(C)C)CO4)cs3)nc2-c2csc(n2)-c2csc(n2)C(C(O)c2ccccc2)NC(=O)CNC(=O)c2nc(sc2COC)C(C(C)C)NC(=O)c2nc1sc2C (mixture of isomers) [Compound 7]
studyTarget: Strept. agalactiae L310
MIC of the compounds, µg/mL: 8
--
compound: CNC(=O)CC1NC(=O)c2csc(n2)-c2ccc(-c3nc(C4=NC(C(=O)N5CC(C)NC(C)C5)CO4)cs3)nc2-c2csc(n2)-c2csc(n2)C(C(O)c2ccccc2)NC(=O)CNC(=O)c2nc(sc2COC)C(C(C)C)NC(=O)c2nc1sc2C (mixture of isomers) [Compound 12]
studyTarget: Strept. agalactiae L310
MIC of the compounds, µg/mL: 4
--
compound: CNC(=O)CC1NC(=O)c2csc(n2)-c2ccc(-c3nc(C4=NC(C(=O)N5CCCC5CN(C)CCN(C)C)CO4)cs3)nc2-c2csc(n2)-c2csc(n2)C(C(O)c2ccccc2)NC(=O)CNC(=O)c2nc(sc2COC)C(C(C)C)NC(=O)c2nc1sc2C (mixture of isomers) [Compound 21]
studyTarget: Strept. agalactiae L310
MIC of the compounds, µg/mL: 4
